Source: patent US20080119521A1

# study target: BuChE from human serum (Homo sapiens, UniProt P06276)
# Construct: 0.1 unit/ml BuChE from human serum; from tissue; host or cells: human serum
# Sequence (P06276 29-602): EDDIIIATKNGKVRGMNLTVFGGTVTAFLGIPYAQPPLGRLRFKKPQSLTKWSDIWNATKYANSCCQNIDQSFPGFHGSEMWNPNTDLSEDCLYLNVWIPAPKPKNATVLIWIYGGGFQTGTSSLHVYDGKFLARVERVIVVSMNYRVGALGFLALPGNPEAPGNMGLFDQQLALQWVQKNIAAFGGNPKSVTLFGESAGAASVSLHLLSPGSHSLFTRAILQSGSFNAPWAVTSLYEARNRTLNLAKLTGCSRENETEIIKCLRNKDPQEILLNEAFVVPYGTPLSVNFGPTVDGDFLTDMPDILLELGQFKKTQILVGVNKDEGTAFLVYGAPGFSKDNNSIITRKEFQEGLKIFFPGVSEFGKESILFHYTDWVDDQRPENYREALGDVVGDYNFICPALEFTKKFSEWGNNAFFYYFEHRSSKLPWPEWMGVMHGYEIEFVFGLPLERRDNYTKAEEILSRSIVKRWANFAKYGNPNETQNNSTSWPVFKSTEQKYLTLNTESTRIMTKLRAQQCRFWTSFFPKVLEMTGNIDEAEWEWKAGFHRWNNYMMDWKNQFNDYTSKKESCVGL
# experimental protocol: Butyrylcholinesterase (BuChE) inhibition, Ellman colorimetric method
# Format: biochemical
# experimental conditions: BuChE from human serum, 30° C., pH 8, 10 min preincubation, butyrylthiocholine iodide substrate; read-out: IC50 BuChE
# Protocol: Butyrylcholinesterase (BuChE) Inhibition (from Human Serum) BuChE inhibitory activity was evaluated at 30° C. by the colorimetric method reported by Ellman [Ellman, G. L.; Courtney, K. D.; Andres, B.; Featherstone, R. M. Biochem. Pharmacol. 1961, 7, 88-95]. […] Enzyme activity was determined by measuring the absorbance at 405 nm during 5 minutes with a microplate reader Digiscan 340T. […] The reaction rate was calculated with, at least, triplicate measurements. […]
recorded metric: IC50

So what does the record say about IC50 for O=C(NCCC1CCN(Cc2ccccc2)CC1)OCCc1c[nH]c2ccccc12 [Compound 7] ? 30 nM
